B1: RAB22A (parent)
chain: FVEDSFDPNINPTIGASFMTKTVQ

variants of: B1; assay: protein stability index of a GFP-peptide fusion (GPS, HEK-293T) (PSI 1-6); higher = more stable; conditions: c terminus: a fixed tail appended;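 also: lentivirally expressed fusions sorted by FACS into six bins by GFP to DsRed ratio, PSI derived from sequencing read proportions per bin multiplied by bin number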
Measurement Type: protein stability index

# Variant, Measurement Type, Numeric Value
data = [
    ("S5R", "protein stability index", 1.93),
    ("D4M", "protein stability index", 2.23),
    ("F1L", "protein stability index", 3.51),
    ("D7R", "protein stability index", 1.97),
    ("M19L", "protein stability index", 2.22),
    ("V2T", "protein stability index", 3.68),
    ("M19E", "protein stability index", 3.36),
    ("I10Y", "protein stability index", 2.25),
    ("T13M", "protein stability index", 1.91),
    ("V2A", "protein stability index", 3.54),
    ("F1R", "protein stability index", 4.24),
]
